System: Tobacco mosaic virus
Assay: Induction of systemic acquired resistance against Tobacco mosaic virus (TMV) in tobacco plants exposed to 500 ug/mL compound through leaf spray followed by 7 days culture under green house conditions assessed as inhibition of viral growth in leaves infected with Tobacco mosaic virus (TMV) measured 72 hr post viral infection by half-leaf juice rubbing method
Format: functional
Set-up: scale not given: the % may be the effect or the level left
experimental-readout: Activity

Data point: Cc1nnsc1C(=O)Nc1nc(-c2ccccc2)cs1 ; Activity = 70%

Data point: CCc1cc(-c2nnc(-c3snnc3C)o2)nn1C ; Activity = 20%

Data point: CCc1cnc(NC(=O)c2snnc2C)s1 ; Activity = 30%

Data point: CCCCCCc1cnc(NC(=O)c2snnc2C)s1 ; Activity = 0%

Data point: Cc1nnsc1C(=O)Nc1nc(-c2ccc(Cl)cc2)cs1 ; Activity = 40%

====

Please go through the items and note down their inhibition of growth at 50 µg/mL.
Test system: Ustilaginoidea virens
Test: Antifungal activity against Villosiclava virens assessed as growth inhibition at 50 ug/mL measured after 2 days post dose
Type: functional
Conditions: 48 h, read-out: GI
Give the value in % but do not write % after it.

Data point: Cc1nnsc1-c1nnc(-c2snnc2C)o1 ; inhibition of growth at 50 µg/mL = 0

Data point: COc1ccc(-c2nnc(-c3snnc3C)o2)cc1 ; inhibition of growth at 50 µg/mL = 29.4

Data point: CCc1sc(NC(=O)c2snnc2C)nc1-c1ccc(Cl)cc1Cl ; inhibition of growth at 50 µg/mL = 33.3

Data point: Cc1cccc(-c2nnc(-c3snnc3C)o2)c1 ; inhibition of growth at 50 µg/mL = 0

Data point: Cc1nnsc1-c1nnc(-c2ccc(=O)[nH]c2)o1 ; inhibition of growth at 50 µg/mL = 22.2

Data point: Cc1nnsc1-c1nnc(/C=C/c2ccccc2)o1 ; inhibition of growth at 50 µg/mL = 0

Data point: Cc1ccc(-c2nnc(-c3snnc3C)o2)c(Cl)n1 ; inhibition of growth at 50 µg/mL = 17.6
